Data credit: PubChem BioAssay AID571

- target.desc: 5-hydroxytryptamine receptor 1E (Homo sapiens) (UniProt P28566)
- Sequence (P28566 whole entry, looked up): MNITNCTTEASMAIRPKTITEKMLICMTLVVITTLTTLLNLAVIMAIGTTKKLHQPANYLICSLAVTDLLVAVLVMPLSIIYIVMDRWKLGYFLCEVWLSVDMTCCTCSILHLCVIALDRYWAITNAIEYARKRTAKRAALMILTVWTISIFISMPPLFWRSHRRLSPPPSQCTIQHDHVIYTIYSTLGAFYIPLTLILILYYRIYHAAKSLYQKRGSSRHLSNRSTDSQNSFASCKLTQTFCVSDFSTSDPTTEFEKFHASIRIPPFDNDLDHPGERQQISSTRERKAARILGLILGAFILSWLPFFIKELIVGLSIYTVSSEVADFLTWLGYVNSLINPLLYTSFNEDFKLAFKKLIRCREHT
- measurement.description: 5-HT1E receptor antagonists, primary screen, cell-based, HTS (AID 571);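 also: signal is the 460 over 535 nm emission ratio of beta-lactamase substrate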
- test.context: CHO 5-HT1E Ga15 NFAT-bla reporter, FRET, antagonist; at 6 µM
Among all 65,000 compounds or so, about 640 (0.98%) were called active.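 The calls were made as follows: active = inhibition above a set limit, the mean inhibition across every tested compound plus 3 SD (cut at about 29% in these data); inactive = the rest.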 The entries come from a sample that favours actives as a whole.
Respond only with the outcome that fits, drawn from active, inactive

OCc1n[nH]c(CO)n1	inactive
COc1ccc(NC(=O)c2c(SC)nsc2SC)cc1	inactive
CC1CCCC(NC(=O)CSc2nccn2C)C1C (stereo not given)	inactive

Query: Hello, I am checking results. What call was entered for "O=C(Nn1cc(C(=O)N2CCN(c3ccccc3F)CC2)c2ccccc2c1=O)c1cnccn1" ?
Reply: inactive

Query: Hello, I am checking results. What call was entered for "COCCNC(=O)CN(C(=O)CCC(=O)Nc1cc(C)on1)c1ccc(C)cc1C" ?
Reply: inactive

----------
- target.desc: 5-hydroxytryptamine receptor 1E (Homo sapiens) (UniProt P28566)
- measurement.description: 5-HT1E receptor antagonists, primary screen, cell-based, HTS (AID 571);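 also: signal is the 460 over 535 nm emission ratio of beta-lactamase substrate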
- test.context: CHO 5-HT1E Ga15 NFAT-bla reporter, FRET, antagonist; at 6 µM
Screen size: about 65,000 compounds; about 640 (0.98%) were called active.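 How the source made its calls: active means inhibition above a set limit, the mean inhibition across every tested compound plus 3 SD (cut at about 29% in these data); inactive means the rest.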 What follows is part of a selection rich in actives, with near analogues and random picks from the rest.
Respond only with the outcome that fits, drawn from active, inactive

The examples below pair each entry with its known result.
CN(C)CCCNC(=O)c1ccc2[nH]c3ccccc3c2c1	inactive
Cc1ccc(-n2nc(-c3ccco3)cc2C(=O)NCc2cccnc2)cc1	active
COc1ccccc1N1CCN(C(=O)CN(Cc2ccc(Cl)cc2)S(C)(=O)=O)CC1	inactive

Query: Hello, I am checking results. What call was entered for CCOc1ccccc1NC(=O)C1CCC(CNc2c(N3CCOCC3)c(=O)c2=O)CC1 (stereo not given) ?
Reply: inactive

Query: Hello, I am checking results. What call was entered for "Cc1ccc2c(c1)N(CCCC(=O)NCc1cccnc1)C(=O)CO2" ?
Reply: inactive

----------
- target.desc: 5-hydroxytryptamine receptor 1E (Homo sapiens) (UniProt P28566)
- measurement.description: 5-HT1E receptor antagonists, primary screen, cell-based, HTS (AID 571);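 also: signal is the 460 over 535 nm emission ratio of beta-lactamase substrate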
- test.context: CHO 5-HT1E Ga15 NFAT-bla reporter, FRET, antagonist; at 6 µM
Screen size: about 65,000 compounds; about 640 (0.98%) were called active.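 Rule for the calls: active = inhibition above a set limit, the mean inhibition across every tested compound plus 3 SD (cut at about 29% in these data); inactive = the rest.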 For the sample, actives were picked, then their nearest neighbours and some compounds at random.
Respond only with the outcome that fits, drawn from active, inactive

Cc1cc(C(=O)OCC(=O)c2c(N)n(C)c(=O)n(C)c2=O)c(C)o1	inactive
COC(=O)CNS(=O)(=O)c1ccc(Cc2ccc(S(=O)(=O)NCC(=O)OC)cc2)cc1	inactive
COC(=O)Cc1nc2ccccc2[nH]1	inactive
C=CCN(CC=C)C(=O)CN1C(=O)c2ccccc2C1=O	inactive
COc1ccc(NC2CC(=O)N(C)C2=O)cc1 (stereo not given)	inactive

Query: Hello, I am checking results. What call was entered for "CN1CCN(Cc2nc3c(c(=O)n(C)c(=O)n3C)n2Cc2cccc3ccccc23)CC1" ?
Reply: inactive

Query: Hello, I am checking results. What call was entered for N=c1n(Cc2ccc(Cl)cc2)c2ccccc2n1CC(O)c1ccco1 (stereo not given) ?
Reply: inactive

Query: Hello, I am checking results. What call was entered for "COC(=O)Nc1nc2ccc(Sc3ccccc3)cc2[nH]1" ?
Reply: active

Query: Hello, I am checking results. What call was entered for "Oc1ccc2nc(Cc3ccccc3)[nH]c2c1" ?
Reply: inactive

Query: Hello, I am checking results. What call was entered for "CC(C)C[C@H](NC(=O)NCCc1ccc(Cl)cc1)C(=O)O" ?
Reply: inactive

Query: Hello, I am checking results. What call was entered for "COc1ccc(S(=O)(=O)N(C)CC(=O)Nc2ccc3c(c2)OCCO3)cc1OC" ?
Reply: inactive
